- studySystem: acetylcholinesterase (Homo sapiens, UniProt P22303)
- Sequence (P22303 32-614): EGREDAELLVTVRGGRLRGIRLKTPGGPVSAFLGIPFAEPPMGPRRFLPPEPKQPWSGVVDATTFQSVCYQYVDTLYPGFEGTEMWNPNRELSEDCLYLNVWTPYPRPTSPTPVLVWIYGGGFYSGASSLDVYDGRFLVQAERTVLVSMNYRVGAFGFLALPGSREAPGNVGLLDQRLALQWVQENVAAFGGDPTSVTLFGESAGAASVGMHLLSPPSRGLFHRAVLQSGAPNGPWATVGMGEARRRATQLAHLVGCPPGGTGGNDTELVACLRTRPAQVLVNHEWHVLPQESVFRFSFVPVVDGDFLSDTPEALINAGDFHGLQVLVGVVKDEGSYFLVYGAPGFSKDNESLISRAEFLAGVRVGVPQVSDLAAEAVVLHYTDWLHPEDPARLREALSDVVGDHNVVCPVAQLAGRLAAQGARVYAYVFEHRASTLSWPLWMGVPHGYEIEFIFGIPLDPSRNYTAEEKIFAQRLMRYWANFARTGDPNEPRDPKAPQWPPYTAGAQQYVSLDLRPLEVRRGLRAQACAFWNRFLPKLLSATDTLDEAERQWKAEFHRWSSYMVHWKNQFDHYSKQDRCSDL
- procedureText: biochemical
- testSettings: photometric method of Ellman et al.; read-out: IC50, Cholinesterase Inhibition
measuredEndpoint: pIC50
Keep it numeric: pIC50 is minus log10 of the concentration in mol/L.

Nc1c2c(nc3ccccc13)CCSC2: 6.01
Nc1c2c(nc3cc(F)ccc13)CCSC2: 6.82
Nc1c2c(nc3ccccc13)CCS2: 6.36

Documented pIC50 of Nc1c2c(nc3ccccc13)CCOC2 [fumarate] : 6.70

// field: pIC50; key: "Nc1c2c(nc3ccccc13)CSC2" ; value = 7.33

Per the record, "Cc1ccc2c(N)c3c(nc2c1)CCSC3" has pIC50 of 6.72

====

- studySystem: acetylcholinesterase (Homo sapiens, UniProt P22303)
- procedureText: biochemical
Where a name gives a salt, the structure may show the parent alone.
IC50 reference
Numbers only; they are read as µM.

c1ccc(CNc2c3c(nc4ccccc24)CCSC3)cc1 [hydrochloride]: 3.9

Continue with the compound presented below.
Record summary for "Nc1c2c(nc3cc(C(F)(F)F)ccc13)CCSC2" : reported IC50 = 0.64
